experiment: recombinant UMI read abundance after kanamycin selection (control-corrected) (log10(CPM+1)); higher = more efficient recombination; extreme values may be limits of the assay; sequences stand for … in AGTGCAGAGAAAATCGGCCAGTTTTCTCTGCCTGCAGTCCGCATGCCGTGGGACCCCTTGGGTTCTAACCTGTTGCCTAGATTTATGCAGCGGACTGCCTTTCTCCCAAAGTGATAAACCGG…AGGTTGGTTTCACT; site = the 11-nt donor
Values of recombinant UMI read abundance (log10) greater than or equal to 0.009 map to true (1); values below map to false (0).

[[record]]
sequence_content = "CAAGTCACATGGACCGGTTTTCCCGGTAATCCGTATTTGGG (site TAAGTCACTCC)"
assigned_category = "false (0)"

[[record]]
sequence_content = "AGGCTCCCATGGACCGGTTTTCCCGGTAATCCGTATTTGTG (site AGGATCCCTCA)"
assigned_category = "false (0)"

[[record]]
sequence_content = "TCCTAGGCATGGACCGGTTTTCCCGGTAATCCGTATTTGGT (site TTCTAGGCTAC)"
assigned_category = "true (1)"

[[record]]
sequence_content = "GGCCTCCCATGGACCGGTTTTCCCGGTAATCCGTATTTGTT (site GGCCCCCCTAA)"
assigned_category = "false (0)"


Let us examine a further case.
Dear colleague, could you confirm whether GAGCTCACATGGACCGGTTTTCCCGGTAATCCGTATTTGAG (site GAGCTCACTAT) has recombinant UMI read abundance (log10) at or above 0.009?
true (1)

---

assay: recombinant barcode read abundance after kanamycin selection (control-corrected) (log10(CPM+1)); higher = more efficient recombination; sequences stand for … in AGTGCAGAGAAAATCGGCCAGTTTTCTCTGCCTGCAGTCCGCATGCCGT…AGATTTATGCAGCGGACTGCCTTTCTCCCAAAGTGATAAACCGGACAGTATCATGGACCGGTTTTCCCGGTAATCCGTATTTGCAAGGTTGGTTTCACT; site = the 11-nt target
Recorded recombinant barcode read abundance (log10) determines the label; the label ranges are lower level (below 0.08), middle level (0.08 to below 0.4), upper level (0.4 or more)

[[record]]
sequence_content = "TCAGAGCCTTGGGTTCTAACCTGTTGCTG (site TCACAGCCTCA)"
assigned_category = "lower level"

[[record]]
sequence_content = "CAAACACCTTGGGTTCTAACCTGTTGCTT (site CAATCACCTAA)"
assigned_category = "upper level"

[[record]]
sequence_content = "ACTCGTTCTTGGGTTCTAACCTGTTGCTT (site ACTCGTTCTAA)"
assigned_category = "middle level"

[[record]]
sequence_content = "CGACCCTCTTGGGTTCTAACCTGTTGCCT (site TGACCCTCTAG)"
assigned_category = "middle level"

[[record]]
sequence_content = "GACACGCCTTGGGTTCTAACCTGTTGCTT (site GACACGCCTAT)"
assigned_category = "lower level"

[[record]]
sequence_content = "GCTAACCCTTGGGTTCTAACCTGTTGCGT (site GCGAACCCTCC)"
assigned_category = "lower level"

[[record]]
sequence_content = "AAGGGGCCTTGGGTTCTAACCTGTTGCCT (site CGATCTACTCT)"
assigned_category = "middle level"

[[record]]
sequence_content = "GTACAATCTTGGGTTCTAACCTGTTGCCT (site ATACAATCTAG)"
assigned_category = "upper level"

[[record]]
sequence_content = "ACCTCAACTTGGGTTCTAACCTGTTGCCT (site ACATCAACTAG)"
assigned_category = "lower level"

[[record]]
sequence_content = "ACACAGACTTGGGTTCTAACCTGTTGCGC (site ACAAAGACTGC)"
assigned_category = "middle level"


Kindly identify the class of AATGCTCCTTGGGTTCTAACCTGTTGCAT (site AATGCTCCTAT) .
upper level

Pick a category. Item: GTTGGCGCTTGGGTTCTAACCTGTTGCCT (site GTTGGCGCTAG)
upper level

The entry to classify is CAGGGGACTTGGGTTCTAACCTGTTGCAC (site TCCAACCCTAA) ; which class holds it?
lower level

Quick check: band for ACATAAGCTTGGGTTCTAACCTGTTGCTA (site GGCGGCTCTAG)
middle level

Please classify: CTATCCTCTTGGGTTCTAACCTGTTGCAT (site CTAACCTCTAT)
middle level

The entry to classify is CGGTACCCTTGGGTTCTAACCTGTTGCGG (site CGGTACCCTCC) ; which class holds it?
upper level

Band for the recorded recombinant barcode read abundance (log10) of GTAAATCCTTGGGTTCTAACCTGTTGCCT (site GTAAATCCTAG) ?
upper level

Which of the defined bands does the recorded recombinant barcode read abundance (log10) of CAGAGCTCTTGGGTTCTAACCTGTTGCCT (site CAGAGGTCTAG) sit within?
middle level

Could you place AGAGGTCCTTGGGTTCTAACCTGTTGCCT (site AGAGGTCCTAG) in its proper category? Many thanks.
upper level

State the band of TGTGTCCCTTGGGTTCTAACCTGTTGCCG (site TGTCTCCCTCG)
lower level

---

test: recombinant barcode read abundance after kanamycin selection (control-corrected) (log10(CPM+1)); higher = more efficient recombination; sequences stand for … in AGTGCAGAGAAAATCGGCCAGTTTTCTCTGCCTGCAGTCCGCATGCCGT…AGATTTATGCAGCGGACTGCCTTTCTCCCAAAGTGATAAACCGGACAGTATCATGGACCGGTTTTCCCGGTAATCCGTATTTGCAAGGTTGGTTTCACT; site = the 11-nt target
Threshold check on recombinant barcode read abundance (log10): at or above 0.3 gives class 1, strictly below gives class 0.

Some solved cases for reference:
[[record]]
sequence_content = "GCTGGTCCTTGGGTTCTAACCTGTTGCCT (site GCAGGTCCTAG)"
assigned_category = "class 1"

[[record]]
sequence_content = "GCATCGTCTTGGGTTCTAACCTGTTGCCT (site GCCTCGTCTAG)"
assigned_category = "class 0"

[[record]]
sequence_content = "CCAGGTACTTGGGTTCTAACCTGTTGCCT (site ACAGGTACTAG)"
assigned_category = "class 0"

[[record]]
sequence_content = "CTGACTTCTTGGGTTCTAACCTGTTGCCT (site CTGACTTCTAG)"
assigned_category = "class 0"

[[record]]
sequence_content = "ATAGCAACTTGGGTTCTAACCTGTTGCCT (site ATAGCCACTAG)"
assigned_category = "class 0"


State whether the measured recombinant barcode read abundance (log10) reaches 0.3, counting equality as reaching it, for CAGTACGCTTGGGTTCTAACCTGTTGCCT (site CAGTACGCTAG)
class 1

Please check the record TCCCATCCTTGGGTTCTAACCTGTTGCGT (site TCCCATCCTAC) and state if its recombinant barcode read abundance (log10) is at or above 0.3.
class 1

Reported recombinant barcode read abundance (log10) reaches at least 0.3 for AGGTGTCCTTGGGTTCTAACCTGTTGCTT (site CGGTGTCCTAA) ?
class 0

Is recombinant barcode read abundance (log10) at least 0.3? Consider CACGCGTCTTGGGTTCTAACCTGTTGCTG (site CACGCTTCTTA)
class 0

---

experiment: recombinant barcode read abundance after kanamycin selection (control-corrected) (log10(CPM+1)); higher = more efficient recombination; sequences stand for … in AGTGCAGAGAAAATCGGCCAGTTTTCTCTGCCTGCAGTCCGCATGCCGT…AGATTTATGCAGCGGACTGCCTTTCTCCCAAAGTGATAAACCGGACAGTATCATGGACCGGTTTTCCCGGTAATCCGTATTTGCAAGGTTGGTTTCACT; site = the 11-nt target
sequences and their reported recombinant barcode read abundance (log10)
Keep the answer to the number alone.

Known recombinant barcode read abundance (log10) results, listed for orientation:
[[record]]
sequence_content = "ATGGGCCCTTGGGTTCTAACCTGTTGCTG (site ATGGGCCCTCA)"
recorded_number = 2.97

[[record]]
sequence_content = "CCGTGCCCTTGGGTTCTAACCTGTTGCTG (site CCGGACCCTCA)"
recorded_number = 0.111

[[record]]
sequence_content = "GATACGGCTTGGGTTCTAACCTGTTGCCT (site GATACGCCTAG)"
recorded_number = 0


May I ask what recombinant barcode read abundance (log10) has been recorded for TAGGCTACTTGGGTTCTAACCTGTTGCCA (site ACCCAATCTGT) ?
0.0662

recombinant barcode read abundance (log10) lookup needed for GTTCCATCTTGGGTTCTAACCTGTTGCCT (site GATCCATCTAG) , thanks.
0.172

I'd like to know its recombinant barcode read abundance (log10). The sequence in question is TCCAAGGCTTGGGTTCTAACCTGTTGCTA (site TCCAAGGCTTA)
0.275

Reported recombinant barcode read abundance (log10) for CTATTGTCTTGGGTTCTAACCTGTTGCGG (site CTATTGTCTAC) : what is it?
0.714

Dear colleague, I am looking for the recorded recombinant barcode read abundance (log10) of the following sequence: GGTTGCACTTGGGTTCTAACCTGTTGCCT (site GGTTGCACTAG)
0.4

Please look up its recombinant barcode read abundance (log10): GCTTCGTCTTGGGTTCTAACCTGTTGCCT (site GCCTCGTCTAG)
0.129

For CTAAGAACTTGGGTTCTAACCTGTTGCAT (site CTAAGAACTAA) , what is its reported recombinant barcode read abundance (log10)?
0.15

Entry CAGTACGCTTGGGTTCTAACCTGTTGCCT (site CAGCAAGCTAG) has what recombinant barcode read abundance (log10)?
0.31

Can you look up the measured recombinant barcode read abundance (log10) of TCAGGAGCTTGGGTTCTAACCTGTTGCAG (site TCAGGAGCTCT) for me?
1.57

Can you share its recombinant barcode read abundance (log10)? I mean this sequence: ACACCCTCTTGGGTTCTAACCTGTTGCTT (site CGACCCTCTAA)
0.208

Quick check: recombinant barcode read abundance (log10) of AGGAGCGCTTGGGTTCTAACCTGTTGCCT (site AGGAGCGCTAG) ?
1.95

// query recombinant barcode read abundance (log10) value for entry ATGATACCTTGGGTTCTAACCTGTTGCAT (site ATGATACCTAT)
1.71

Recorded recombinant barcode read abundance (log10) for TTACGCGCTTGGGTTCTAACCTGTTGCGG (site TTACGAGCTCC) , please?
0.258

Reported recombinant barcode read abundance (log10), sequence CCAGGTACTTGGGTTCTAACCTGTTGCCT (site TCAGGTACTAG) : ____
0.182

Query: recombinant barcode read abundance (log10); subject: TTACCTACTTGGGTTCTAACCTGTTGCCT (site TTACCTACTAG)
0.802

Returns the measured recombinant barcode read abundance (log10) for the input sequence. Input: GGGTTTGCTTGGGTTCTAACCTGTTGCCT (site GCGTTTGCTAG)
0.0869

Need recombinant barcode read abundance (log10) of CGGATCGCTTGGGTTCTAACCTGTTGCCT (site CGGATTGCTAG) , thanks.
0.271

Entry under review: GCGTTTGCTTGGGTTCTAACCTGTTGCCT (site GTGTTTGCTAG) . Reported recombinant barcode read abundance (log10)?
0
